Field: cytotoxicity at 10 µM. Provide a value for each of the compounds that follow.
# Assay Method Text: Toxicity liver stage against HepG2, at 10uM
# Type: cell-based
# Parameters: test concentration 10 uM, cell line HepG2-A16-CD81EGFP
# Setup Conditions: human, HepG2-A16-CD81EGFP cells; read-out: INHIBITION
Give bare numbers, in %.

The examples below pair each entry with its known result.
CO[C@H]1CN(C(=O)c2ccc3c(c2)OCO3)[C@@H]2COC[C@H]12
-142
COc1cccc2c1OCC(C(=O)NC1CCN(S(C)(=O)=O)CC1)C2 (stereo not drawn)
-10.7
COCCC(=O)N1CC[C@H]2O[C@@H](C)C[C@H]2C1
-72.4
CC(CC(=O)NCCS(N)(=O)=O)C1CCCCC1 (stereo not drawn)
-9.52
CCC(CN1CCCC1)n1cncc1-c1cnn(-c2ccccc2)c1 (stereo not drawn)
5.87

Below is a list of compounds. For each, state its recorded cytotoxicity at 10 µM.
1. CC(=O)N1CCC2(CC1)CC(NS(C)(=O)=O)c1ccccc1O2 (stereo not drawn)
2. CN1CCN([C@@H]2CCN(Cc3cccc(-n4cccn4)c3)C[C@H]2O)CC1

## Output
1. 5.53
2. 8.42

Quick request: cytotoxicity at 10 µM for each listed item, please.
1. COc1cccc(CC(=O)N2CCCC2c2nc(C)c(C)c(O)n2)c1 (stereo not drawn)
2. Cc1nc(NCc2ccc(F)cc2)cc(C2CCCN2)n1 (stereo not drawn)
3. COCCc1noc(CN2CCCC(Cn3nc(C)nc3C)C2)n1 (stereo not drawn)
4. O=C(O)c1cc(-n2cc3c(n2)CCC3)cc(S(=O)(=O)N2CCOCC2)c1
5. Cc1ccc(NC(=O)N(C)C)c(C(=O)OCC(=O)NC2CCCC2)c1
6. CN(CCn1cnc(-c2ccccc2)c1-c1ncc[nH]1)S(C)(=O)=O
7. CNC(=O)c1cn[nH]c1C1(C)CCCN(Cc2nccn2C(C)C)C1 (stereo not drawn)
8. Cc1nccc(N2CCC(=O)N(CC3CC3)C(C(C)C)C2)n1 (stereo not drawn)

## Output
[-36.9, -3.27, -6.41, -7.95, -8.03, 1.87, -2.73, -0.232]

Take each entry in turn and give its cytotoxicity at 10 µM.
1. CN(Cc1nnc2n1CCC2)C(=O)Cc1ccc2c(c1)OCCO2
2. CN(C)CC(=O)N1CCCC1c1ccccn1 (stereo not drawn)
3. CN1CCOC(CNCC(=O)NCCc2ccc(F)cc2)C1 (stereo not drawn)

## Output
-7.86
4.38
1.38
